assay: cytotoxicity by WST viability readout, late-stage follow-up, cytotoxicity control for NOD2-RIPK2 interaction inhibitor project, cell-based, absorbance (AID 652167); conditions: WST cytotoxicity, absorbance 620 nm; WST absorbance; at 10 µM; stronger effect = lower value
metric name: absorbance
// print number alone

compound	absorbance
O=S(=O)(c1ccccc1)N1CCCCCC1	0.969
COc1ccc(C(C[N+](=O)[O-])n2nc(C)cc2C)cc1 (stereo unspecified)	0.973
Cc1nc([N+](=O)[O-])c(Br)n1Cc1ccc(Cl)c(Cl)c1	0.974
Cc1ccc(C(C[N+](=O)[O-])n2nc(C)cc2C)cc1 (stereo unspecified)	0.968
Cc1nc([N+](=O)[O-])c(Br)n1Cc1ccccc1	0.991
Cc1cc(S(=O)(=O)N2CCCCCC2)ccc1F	1
Cc1ncc([N+](=O)[O-])n1Cc1ccc(Cl)c(Cl)c1	1.01
O=[N+]([O-])c1cc(S(=O)(=O)N2CCCCCC2)ccc1F	0.991
O=S(=O)(c1ccc(F)cc1)N1CCCCCC1	1
O=[N+]([O-])c1cccc(S(=O)(=O)N2CCCCCC2)c1	0.999

Attention now turns to another entry.
Request: I would be grateful if you could share the reported absorbance for `Cc1ccc(S(=O)(=O)N2CCCCCC2)cc1[N+](=O)[O-]` .
Response: 0.99
